- System: Mycobacterium tuberculosis
- assay: Antitubercular activity against Mycobacterium tuberculosis H37Rv in anaerobic condition after 7 days by low oxygen recovery assay
- Format: functional
- setup conditions: 168 h
outcome measure: MIC (µM)

O=[N+]([O-])c1cn2c(n1)OC[C@@H](OCc1ccc(-c3ccccc3OC(F)(F)F)cc1)C2: 0.97
COc1c(F)cc(F)cc1-c1ccc(CO[C@@H]2COc3nc([N+](=O)[O-])cn3C2)cc1: 0.86
O=[N+]([O-])c1cn2c(n1)OC[C@@H](OCc1ccccc1-c1ccc3ccccc3c1)C2: 3.1
CS(=O)(=O)c1ccc(-c2ccc(CO[C@@H]3COc4nc([N+](=O)[O-])cn4C3)cc2)cc1: 14
